Assay: NCI Yeast Anticancer Drug Screen. Data for the sgs1 mgt1 strain (AID 161);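 also: 0% = growth of cultures given vehicle only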
Details: S. cerevisiae sgs1 mgt1 strain, at 50.0 µM, active compounds read high
Compounds without any hit were thinned out: in the full panel of roughly 79,000, 15% have a hit.
growth inhibition listing for selected compounds.
Quick note: give the figure in %, leave out the unit.

CCCCN=CC(Cl)(Cl)C(=O)OCC; -8.35
O=C1CN(N2C(=O)CSC2C23CC4CC(CC(C4)C2)C3)C(=O)CN1c1ccccc1 (configuration not stated); 13
C=C(Cl)C(=C)CCC(Cl)C(C)C (configuration not stated); 1.6

Query (compound): Cc1cccc(C)c1NC(=O)/C(=N/NC(N)=S)C(C)C(=O)c1ccc(Cl)cc1 (configuration not stated) ; field requested: growth inhibition
19.6

Query (compound): Cc1[nH]nc2c1NC(=O)OC(C)C2 (configuration not stated) ; field requested: growth inhibition
0.9

Query (compound): CN(C)C1C(=O)c2ccccc2C1=O ; field requested: growth inhibition
-29.5

Query (compound): NC(=O)c1cc(Cl)ccc1O ; field requested: growth inhibition
18.4

###

Assay: NCI Yeast Anticancer Drug Screen. Data for the sgs1 mgt1 strain (AID 161);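 also: 0% = growth of cultures given vehicle only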
Details: S. cerevisiae sgs1 mgt1 strain, at 50.0 µM, active compounds read high
About 79,000 compounds went through this panel and 15% of them were active in at least one assay; those are over-represented in the sample as a whole.
growth inhibition listing for selected compounds.
Quick note: give the figure in %, leave out the unit.

Here are 5 compounds together with their reported answers.
CCCCCCCC[N+](C)(C)CC#CC[N+](C)(C)CCCCCCCC; 13.9
COC(=O)C1=C(C(=O)OC)SC(=C2c3ccsc3-c3sccc32)S1; -7.45
O=C1C(=S)Nc2c(F)cccc21; 24.2
O=C(Nc1ccn(C2CCC(COC(c3ccccc3)(c3ccccc3)c3ccccc3)O2)c(=O)n1)c1ccccc1 (stereo unspecified); 27.6
Cc1c(O)cc(O)c(C=O)c1C; 16.1

Query (compound): COC(=O)NC(=O)CCC(=O)O ; field requested: growth inhibition
0.95

Query (compound): NC(=S)/N=C/C1=C(O)CCCC1=O ; field requested: growth inhibition
16.4

Query (compound): CCCc1c(OC(=O)c2ccc([N+](=O)[O-])cc2)cccc1OC(=O)c1ccc([N+](=O)[O-])cc1 ; field requested: growth inhibition
12.8

Query (compound): c1ccc2c3c(ccc2c1)CCCC3 ; field requested: growth inhibition
2.9

Query (compound): CC(=O)c1c2c(cc3c1CC1(C3)Cc3cc4c(c(C(C)=O)c3C1)CCC4)CCC2 ; field requested: growth inhibition
-4

Query (compound): C=CCSc1nc2ccc(NCn3c(=S)sc4cc([N+](=O)[O-])ccc43)cc2s1 ; field requested: growth inhibition
30.9

###

Experiment: NCI Yeast Anticancer Drug Screen. Data for the mec2-1 strain (AID 157)
Details: S. cerevisiae mec2-1 strain, at 50.0 µM, active compounds read high
About 79,000 compounds went through this panel and 15% of them were active in at least one assay; those are over-represented in the sample as a whole.
growth inhibition listing for selected compounds.
Quick note: give the figure in %, leave out the unit.

O=S(=O)(OCC(F)(F)F)c1ccccc1; 8.25
O=C1C(NCCc2ccc(O)c(O)c2)=CC(=O)c2ncccc21; 34.6
O=C(O)c1cc([N+](=O)[O-])cc(P(=O)(O)O)c1; -6.45
COc1cc(C=C(C#N)C#N)ccc1OC(=O)c1cc(OC)c(OC)c(OC)c1; -5.6
O=C1NC(=O)N(C(F)(F)F)C(F)(F)N1C(F)(F)F; 4.55

Next compound, please.
Query (compound): CC(C)OC(=O)N1C(=O)C2C3CCC(O3)C2C1=O (stereo unspecified) ; field requested: growth inhibition
8.25

###

Assay: NCI Yeast Anticancer Drug Screen. Data for the sgs1 mgt1 strain (AID 161);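 also: 0% = growth of cultures given vehicle only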
Details: S. cerevisiae sgs1 mgt1 strain, at 50.0 µM, active compounds read high
About 79,000 compounds went through this panel and 15% of them were active in at least one assay; those are over-represented in the sample as a whole.
PROPERTY LABEL: growth inhibition (%)
Quick note: give the figure in %, leave out the unit.

CCN(CC)CC(C)=O; -82.5
CC(C)CCOC(=O)NC1c2ccccc2Oc2ccccc21; 3.65
C/C(=C\c1ccc(OCCN2CCOCC2)cc1)c1ccc2c(c1)C(C)(C)CCC2(C)C; 16.1
CCCCNC(C(=O)c1ccc(N(C)C)cc1)c1ccccc1 (configuration not stated); -3.1
N=C(N)n1ncc2c1CCCC2=O; -6.1

Query (compound): CC(C)(C)S(=O)(=O)CCCCl ; field requested: growth inhibition
-1.65

Query (compound): c1ccc2c(c1)CSc1ccccc1-2 ; field requested: growth inhibition
-6.4

###

Test: NCI Yeast Anticancer Drug Screen. Data for the bub3 strain (AID 167)
Conditions: S. cerevisiae bub3 mutant strain, at 50.0 µM, active compounds read high
This is part of a sample that, as a whole, favours compounds with a hit. Of some 79,000 tested, about 15% had one in any assay.
PROPERTY LABEL: growth inhibition (%)
Quick note: give the figure in %, leave out the unit.

Here are 5 compounds together with their reported answers.
CCOC(=O)NN(C(=O)OCC)C(C(=O)C1CCCCC1)N(NC(=O)OCC)C(=O)OCC; -3.55
CC1CC(C)CN(S(=O)(=O)c2cc(Cl)c(Oc3ccc([N+](=O)[O-])cc3Cl)c(Cl)c2)C1 (stereo unspecified); -11.3
CN(C)/N=N/c1nc2c(c(=O)n(C)c(=O)n2C)n1CC(O)CO (stereo unspecified); 2
NC(=S)N/N=C\c1nccc2ccsc12; -0.05
C/C(=C/C(C)O)c1ccccc1 (stereo unspecified); -6.1

Query (compound): Nc1cccc(Cl)c1C(=O)O ; field requested: growth inhibition
-25.8

###

Assay: NCI Yeast Anticancer Drug Screen. Data for the rad50 strain (AID 155);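 also: 0% = growth of vehicle-only cultures of the same strain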
Settings: S. cerevisiae rad50 strain growth inhibition; at 50.0 µM; active compounds read high
Compounds without any hit were thinned out: in the full panel of roughly 79,000, 15% have a hit.
growth inhibition listing for selected molecules.
Quick note: give the figure in %, leave out the unit.

Here are 4 molecules together with their reported answers.
CN(C)C(=O)Nc1ccc(C#N)cc1; 10.1
CCOC(=O)c1ncn2c1[nH]c(=O)c1ccccc12; -6.95
O=C(c1ccccc1)c1cccc(C(=O)c2ccccc2)n1; -7.5
C=CCOC(C)OCC=C; 17.9

Query (molecule): Brc1ccncc1 ; field requested: growth inhibition
-10.7

Query (molecule): Nc1ccc(S(=O)(=O)Nc2cnc3c(Cl)cccc3n2)cc1 ; field requested: growth inhibition
-11

Query (molecule): CCN(CC)c1ccc(N=C2C=C(C(=O)Nc3ccccc3)C(=O)c3ccccc32)cc1 ; field requested: growth inhibition
-10.9

Query (molecule): CO/C(=N\N=C\c1cc(OC)ccc1OC)c1ccncc1 ; field requested: growth inhibition
0.6

Query (molecule): CC1CCC2(OC1)OC1CC3C4CCC5CC(O)CCC5(C)C4CC(=O)OC3(C)C1C2C (configuration not stated) ; field requested: growth inhibition
-10.8

Query (molecule): O=[N+]([O-])c1ccc(COP(=O)(O)OCc2ccc([N+](=O)[O-])cc2)cc1 ; field requested: growth inhibition
-1.5

###

Assay: NCI Yeast Anticancer Drug Screen. Data for the mlh1 rad18 strain (AID 175)
Details: S. cerevisiae mlh1 rad18 strain growth inhibition; at 50.0 µM
Compounds without any hit were thinned out: in the full panel of roughly 79,000, 15% have a hit. Activity calls are given as the source filed them. No stated cut-off is given here; in the data, active means growth inhibition above about 70%; inactive means the rest.
Respond with a class label; see active, inactive

OCCOc1c(Cl)c(C(Cl)(Cl)Cl)nc2ccccc12; active
COc1cc2c(c([N+](=O)[O-])c1)NC(=O)CS2; inactive
Cc1ccc(S(=O)(=O)ON/N=c2\ccn(C)c3ccccc23)cc1; inactive
CCOC(=O)N(C)C; inactive
Cc1cc2ccccc2nc1-c1ccncc1; inactive

// outcome(item) with item = CNC(=S)C(N)CCCC1NC(=S)N(C)C1=O (configuration not stated)
inactive

// outcome(item) with item = NC(=O)SCC(=O)Nc1ccc2ncccc2c1
inactive

// outcome(item) with item = COc1cc(C(=O)CBr)c(OC)cc1C
inactive

// outcome(item) with item = CC(=O)OCC(=O)C1(O)C(C)CC2C3CCC4CC(=O)CCC4(C)C3=CCC21C (configuration not stated)
inactive

// outcome(item) with item = O=C(Nc1ccc(Cl)c(Cl)c1)c1ccc(Cl)cc1
inactive

// outcome(item) with item = Cc1ccc(NC(=O)Oc2cc(C)c(Cl)cc2C(C)C)cc1
inactive

// outcome(item) with item = O=C(O)CC(=O)Nc1cc([N+](=O)[O-])ccc1OCc1ccccc1
inactive

###

growth inhibition listing for selected molecules.
Assay: NCI Yeast Anticancer Drug Screen. Data for the mlh1 rad18 strain (AID 175)
Details: S. cerevisiae mlh1 rad18 strain growth inhibition; at 50.0 µM; active compounds read high
Compounds without any hit were thinned out: in the full panel of roughly 79,000, 15% have a hit.
Quick note: give the figure in %, leave out the unit.

Here are 2 molecules together with their reported answers.
c1ccc2cc(C3OCC4(CCC4)CO3)ccc2c1; -6.9
CC1CCC(C(C)C)C(OC(=O)c2ccccc2O)C1 (stereo not given); 35.5

Next molecule, please.
Query (molecule): COc1ccc(C(=O)C(C)(CCC#N)CCC#N)cc1 ; field requested: growth inhibition
2.3
